Test: small-molecule microarray binders of probe aNog, primary screen, biochemical, biotinylated probe, 635/667 nm fluorescence (AID 1115);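 further: probe is biotinylated aNog protein used at 0.15 µg/mL for 1 h at 4 C; z-score combines 667 nm fluorescence of each spot with its signal to noise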
Settings: higher = more signal
# key: entry, value: composite z-score

These solved cases illustrate the format of a correct answer.
[[record]]
compound = "C=CCC(OC(C)=O)[C@@H]1[C@@H](N(Cc2cccc3ccccc23)C(=O)c2ccc(-c3ccccc3)cc2)c2cc(OCCCO)ccc2N1C(=O)Cc1ccc(OC)cc1 (some centres not stated)"
measured = -0.0907

[[record]]
compound = "CN1C(=O)C2C=CC(C(O)c3ccc(I)cc3)N(N3CCCCC3)C2C1=O (configuration not stated)"
measured = 1.34

[[record]]
compound = "COC(=O)[C@@]1(Cc2ccc(F)cc2)[C@H]2c3cc(C(=O)N4CCCC4)n(Cc4cc(C)n(C)n4)c3C[C@H]2CN1C(=O)c1ccccc1"
measured = 2.16

[[record]]
compound = "CCOC(=O)[C@H]1C/C=C/C[C@H](C(=O)OCC)C(=O)O[C@H]2[C@@H](OC)O[C@H](CO)[C@@H](OC(=O)Nc3cccc(F)c3)[C@@H]2OC1=O"
measured = 1.93

[[record]]
compound = "CCCCN1CC=CC23O[C@@H]4C=CCOC(=O)[C@@H]4[C@H]2C(=O)N(CCCCCO)[C@@H]3C1=O (some centres not stated)"
measured = 0.151

[[record]]
compound = "Cc1ccc(S[C@]2(C(=O)NC(C)C)CC(=O)N(Cc3ccccc3Cl)[C@@H]2c2ccc(CO)cc2I)cc1"
measured = -0.158


Now consider the entry below.
[ask] Returns the measured composite z-score for the input compound. Input: `C=C(COC)/C(=C/C[C@@H](OC(C)=O)c1ccc(OCCO)cc1)c1cc(C(=O)OC)ccc1OC`
[reply] -0.354
